- Test system: recombinant guanylate cyclase reporter cell line
- protocolNotes: Action on recombinant guanylate cyclase reporter cell line (MEC)
- Assay type: cell-based
- conditionParameters: in some cases mean values obtained from individual determinations
- Protocol: B-2. Action on Recombinant Guanylate Cyclase Reporter Cell Line The cellular action of the compounds according to the invention is determined on a recombinant guanylate cyclase reporter cell line, as described in F. Wunder et al., Anal. Biochem. 339, 104-112 (2005). Representative values (MEC=minimal effective concentration) for the compounds according to the invention are shown in the following table (in some cases as mean values obtained from individual determinations): […]
Where a name gives a salt, the structure may show the parent alone.
observable: minimal effective concentration (µM)

> print(dat)
                                    molecule  resultnumber
 1  CCCC[C@H](CO)NC(=O)c1cnc2c(OCc3c(F)cccc3F)cccn12           0.3
 2  Cc1nc2c(OCc3c(F)cccc3F)cccn2c1C(=O)N[C@@H](CO)c1ccccc1 (racemic) [Example 104, trifluoroacetate]           0.1
 3  CSCC[C@@H](CO)NC(=O)c1c(C)nc2c(OCC3CCCCC3)cccn12             1
 4  Cc1nc2c(OCc3c(F)cccc3F)cccn2c1C(=O)NC(CO)CC(F)(F)F (racemic) [Example 113]          0.03
 5  CCOCC(CO)NC(=O)c1c(C)nc2c(OCc3c(F)cccc3F)cccn12 (racemic) [Example 160]           0.3
 6    Cc1nc2c(OCC3CCCCC3)cccn2c1C(=O)NCCOCCO          0.65
 7  CCC[C@H](CO)NC(=O)c1c(C)nc2c(OCc3c(F)cccc3F)cccn12           0.1
 8  CCCC[C@H](CO)NC(=O)c1c(C)nc2c(OCc3ccccc3Cl)cccn12           0.1
 9  Cc1nc2c(OCc3c(F)cccc3F)cccn2c1C(=O)NCC(O)COc1ccccc1 (stereo not shown)             3
10  Cc1nc2c(OCc3c(F)cccc3F)cccn2c1C(=O)NCC(C)(C)CO             3
11  Cc1nc2c(OCc3ccccc3)cccn2c1C(=O)NCCC1(O)CCCC1             1
12  CCC(O)CNC(=O)c1c(C)nc2c(OCc3c(F)cccc3F)cccn12 (racemic)           0.3
13  CCCC[C@H](CO)NC(=O)c1c(C)nc2c(OCCC(C)C)cc(C)cn12             1
14  CCC(CO)NC(=O)c1c(C)nc2c(OCC3CCCCC3)cccn12 (racemic) [Example 69, formate]           0.1
15  CCCC[C@H](CO)NC(=O)c1c(C)nc2c(OCc3c(F)cccc3F)cc(N3CCCC3)cn12             3
16  CCCC[C@H](CO)NC(=O)c1c(C)nc2c(OCc3c(F)cccc3F)cc(C#N)cn12         0.065
17  Cc1cc(OCCC(C)C)c2nc(C)c(C(=O)NC(CCCC(F)(F)F)C(C)(C)O)n2c1 (single isomer, unassigned; ent-2)             3
18  C[C@@H](CO)NC(=O)c1cnc2c(OCC3CCCCC3)cccn12             3
19  Cc1nc2c(OCc3c(F)cccc3F)cccn2c1C(=O)NC(CCC(F)(F)F)C(C)(C)O (racemic) [Example 149]           0.1
20  CCCCC(NC(=O)c1c(C)nc2c(OC(C)c3c(F)cccc3F)cc(C)cn12)C(C)(C)O (single isomer, unassigned; ent-8)             1
21  CCCC[C@H](CO)NC(=O)c1c(C)nc2c(OCc3c(F)cccc3F)cc(Cl)cn12          0.01
22  Cc1nc2c(OCc3c(F)cccc3F)cccn2c1C(=O)NC(CO)CCCC(F)(F)F (racemic) [Example 114]          0.03
23  Cc1nc2c(OCc3c(F)cccc3F)cccn2c1C(=O)NC(CO)CC(F)(F)F (single isomer, unassigned; ent-8) [Example 121]          0.03
24  C[C@@H](CO)NC(=O)c1c(C(F)(F)F)nc2c(OCC3CCCCC3)cccn12             1
25  Cc1nc2c(OCc3c(F)cccc3F)cccn2c1C(=O)NC(CO)c1ccccn1 (racemic)           0.3
26  Cc1nc2c(OCc3c(F)cccc3F)cccn2c1C(=O)NCCC1(O)CCCCC1           0.3
27  CCCC[C@H](CO)NC(=O)c1c(C)nc2c(OCc3c(F)cccc3Cl)cccn12           0.1
28  Cc1cc(OCC2CC(F)(F)C2)c2nc(C)c(C(=O)NC(CCCC(F)(F)F)C(C)(C)O)n2c1 (racemic)             3
29  Cc1nc2c(OCc3ccccc3Cl)cccn2c1C(=O)NC(CO)CO           6.5
30  Cc1nc2c(OCc3c(F)cccc3F)cc(Cl)cn2c1C(=O)N[C@@H](CO)CCCO           0.3
31  Cc1nc2c(OCc3c(F)cccc3F)cccn2c1C(=O)NC(C)C(O)C(F)(F)F (single isomer, unassigned) [Example 143]          0.03
